Test: In vitro human microsomal stability assay
Type: in vitro ADME
Conditions: human liver microsomes, 0.5 μM substrate, 0.25 mg/mL microsomal protein, pH 7.4, 37° C., NADPH, 30 minutes
experimental_readout: HUMAN MICROSOMAL STABILITY (% REMAINING AFTER 30 MINUTES)

# compound, result_value
measured = [
    ("OC(c1ccccn1)C1(c2cccc(OC(F)(F)F)c2)CCNCC1 (stereo not drawn)", ">85%"),
    ("CN1CCC(c2ccccc2OC(F)(F)F)(C(O)c2ccccn2)CC1 (stereo not drawn)", ">85%"),
    ("CC(C)(C)OC(=O)N1CCC(c2cccc(OC(F)(F)F)c2)(C(O)c2ccccn2)CC1 (stereo not drawn)", "3.7%"),
    ("OC(c1ccccn1)C1(c2ccccc2F)CCCO1 (stereo not drawn)", "45%"),
    ("Cl.O[C@H](c1ccccn1)C1(c2ccc(Cl)c(Cl)c2)CC(F)(F)C1", "52%"),
    ("CN1CCC(c2ccc(C(F)(F)F)cc2)(C(O)c2ccccn2)CC1 (stereo not drawn)", ">85%"),
    ("CN1CCC(c2cccc(OC(F)(F)F)c2)(C(O)c2ccccn2)CC1 (stereo not drawn)", "84%"),
    ("CN1CCC(c2ccc(OC(F)(F)F)cc2)(C(O)c2ccccn2)CC1 (stereo not drawn)", "68%"),
    ("CN1CCC(c2ccc(Cl)c(Cl)c2)(C(O)c2ccccn2)CC1 (stereo not drawn)", ">85%"),
]
